# System: NCI-H2085
# procedure_summary: relative viability (nuclei count vs DMSO), 5 days (fraction); higher = more cells survive
# settings: first compound 8 µM
test_readout: relative viability
Give the figure only, with no unit attached.

Consider the reported relative viability for these compounds:
O=c1[nH]c2ccccc2n1C1CCN(CCCC(c2ccc(F)cc2)c2ccc(F)cc2)CC1 [Pimozide] + CC(C)C[C@H](NC(=O)[C@H](Cc1ccccc1)NC(=O)c1cnccn1)B(O)O [Bortezomib] (partner 0.002 µM) | 0.741
O=c1[nH]c2ccccc2n1C1CCN(CCCC(c2ccc(F)cc2)c2ccc(F)cc2)CC1 [Pimozide] + COc1cc2c(Oc3ccc(NC(=O)C4(C(=O)Nc5ccc(F)cc5)CC4)cc3F)ccnc2cc1OCCCN1CCOCC1 [Foretinib] (partner 0.25 µM) | 0.949

So, O=c1[nH]c2ccccc2n1C1CCN(CCCC(c2ccc(F)cc2)c2ccc(F)cc2)CC1 [Pimozide] + CC(=O)Nc1cccc(-n2c(=O)n(C3CC3)c(=O)c3c(Nc4ccc(I)cc4F)n(C)c(=O)c(C)c32)c1 [Trametinib] (partner 0.02 µM) ? Its relative viability was 0.399

----------
# Test system: LK-2
# procedure_summary: relative viability (nuclei count vs DMSO), 5 days (fraction); higher = more cells survive
# settings: first compound 0.1265 µM
test_readout: relative viability

// recorded relative viability for Cc1sc2c(c1C)C(c1ccc(Cl)cc1)=N[C@@H](CC(=O)OC(C)(C)C)c1nnc(C)n1-2 [JQ1] + C[C@@H](Oc1cc(-c2cnn(C3CCNCC3)c2)cnc1N)c1c(Cl)ccc(F)c1Cl [Crizotinib] (partner 1 µM) : 0.224

# compound Cc1sc2c(c1C)C(c1ccc(Cl)cc1)=N[C@@H](CC(=O)OC(C)(C)C)c1nnc(C)n1-2 [JQ1] + Cc1nc(NC(=O)N2CCC[C@H]2C(N)=O)sc1-c1ccnc(C(C)(C)C(F)(F)F)c1 [Alpelisib] (partner 2 µM) ; its relative viability = 1.06

// relative viability lookup, compound = Cc1sc2c(c1C)C(c1ccc(Cl)cc1)=N[C@@H](CC(=O)OC(C)(C)C)c1nnc(C)n1-2 [JQ1] + CC1(C)CCC(c2ccc(Cl)cc2)=C(CN2CCN(c3ccc(C(=O)NS(=O)(=O)c4ccc(N[C@H](CCN5CCOCC5)CSc5ccccc5)c(S(=O)(=O)C(F)(F)F)c4)cc3)CC2)C1 [Navitoclax] (partner 0.5 µM) , result: 0.785

Entry Cc1sc2c(c1C)C(c1ccc(Cl)cc1)=N[C@@H](CC(=O)OC(C)(C)C)c1nnc(C)n1-2 [JQ1] + Nc1ncn([C@H]2C[C@H](O)[C@@H](CO)O2)c(=O)n1 [Decitabine] (partner 2 µM) ; relative viability = 0.351

----------
# System: NCI-H1792
# procedure_summary: relative viability (nuclei count vs DMSO), 5 days (fraction); higher = more cells survive
# settings: first compound 0.01581 µM
test_readout: relative viability
Form: value (number only, do not type unit).

Some entries whose results are on file:
COc1cc2nccc(Oc3ccc(NC(=O)Nc4cc(C)on4)c(Cl)c3)c2cc1OC [Tivozanib] + O=C(c1cc(Cc2n[nH]c(=O)c3ccccc23)ccc1F)N1CCN(C(=O)C2CC2)CC1 [Olaparib] (partner 8 µM) | 0.46
COc1cc2nccc(Oc3ccc(NC(=O)Nc4cc(C)on4)c(Cl)c3)c2cc1OC [Tivozanib] + Cc1nc(Nc2ncc(C(=O)Nc3c(C)cccc3Cl)s2)cc(N2CCN(CCO)CC2)n1 [Dasatinib] (partner 0.075 µM) | 0.819
Nc1ccn([C@@H]2O[C@H](CO)[C@@H](O)[C@@H]2O)c(=O)n1 [Cytarabine] + Cc1nc(NC(=O)N2CCC[C@H]2C(N)=O)sc1-c1ccnc(C(C)(C)C(F)(F)F)c1 [Alpelisib] (partner 2 µM) | 0.644

Let us move to another entry and its relative viability.
# lookup: COc1cc2nccc(Oc3ccc(NC(=O)Nc4cc(C)on4)c(Cl)c3)c2cc1OC [Tivozanib] + CC(=O)Nc1cccc(-n2c(=O)n(C3CC3)c(=O)c3c(Nc4ccc(I)cc4F)n(C)c(=O)c(C)c32)c1 [Trametinib] (partner 0.02 µM) on NCI-H1792, relative viability = 0.397
